Below, each entry is listed alongside its reported protein stability index.
- assay_info: protein stability index of a GFP-peptide fusion (GPS, HEK-293T) (PSI 1-6); higher = more stable;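 further: 24-mer peptide tiles fused after GFP, lentivirally expressed, FACS-sorted into six equal bins by GFP/DsRed ratio, decoded by Illumina sequencing, PSI is the read-weighted mean bin number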
- conditions_used: treatment: DMSO; c terminus: a fixed tail appended

seq | protein stability index
QLAHMVKEQEETIQRIDENVLGAQ [STX5] | 4.81
SLSHSPGCSSTQGNGRPGRPSQYR [LCOR] | 4.44
LLAGGEKATMQNLNDRLASYLDKV [KRT17] | 2.84
GSLCAIAGVLTIALPVPVIVSNFN [KCNA4] | 3.33
DQGDEGKEGRPGIPGLPGLRGLPG [SCARA5] | 5
SEQCYYIFGDLCGNMANLSLHDHD [DVL3] | 2.96
LDHCANRVLMYGSELDADHPGFKD [TPH1] | 4.62
SLDWETFEQYCAWQLFLAHNIPLE [INTS3] | 2.3
EIKDKDQLVLRTKEAFDTIQEQKV [SASS6] | 4.54
NLYSWDDFMELGRSIPDTQLEQVI [ACSBG2] | 3.25
QPMCEEHEEERINIYCLNCEVPTC [TRIM55] | 4.43
AGEPGHSPADYLRFQDLVLRMLEY [DYRK1B] | 2.27
LSEAYRVLSREQSRRSYDDQLRSG [DNAJC4] | 3.2
ASGQSYSSREVFTSSSSSSSRQTR [KRT16] | 4.84
LLRDQFVKALEDFEDLCDRVFSDE [FAM9B] | 2.97
VIAYDHSRVLLSAIEGIPGSDYVN [PTPRD] | 1.89
SPESESDHEHEEADLELSLPECLE [GNAS] | 5.4
RAASENSQDALRVVSTSGEQMKVY [IKZF1] | 4.26
APRLAVAVPAVTSADSQFSQTTQA [LYSMD4] | 4.76
HLLIPELGACVAPGGNLIVELARY [DNAAF3] | 2.28
EAFRLKQQLHARYVLNLLYETKKH [PPEF2] | 2.5
QCQEAEQARAELTAQHQRRLAAIA [FBF1] | 4.34
SITVSKVDKDQPSILNSCEDPVPG [FBXO34] | 5.25
KNKKKKLKKKQKRQAELLEKRLQE [SRPK2] | 5.15
AETDEHTGANTKKPEDTAEDLTAK [FAM9B] | 5.74
ANTTPSGKSVSSSSSVETGPSVSE [SPATS1] | 5.32
QTGDLLSTFHTISPSFQLKAAALP [PLAGL1] | 2.6
